Target: T1, human IL-13 (recombinant E. coli-expressed) (human, UniProt P35225 35-146)
T1 construct: also called hIL-13
T1 sequence (P35225 other isoform, or with tags, fused parts or gaps limits assumed): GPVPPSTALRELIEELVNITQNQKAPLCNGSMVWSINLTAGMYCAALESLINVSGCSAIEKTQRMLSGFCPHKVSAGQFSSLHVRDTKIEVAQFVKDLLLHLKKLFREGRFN
Test: Biacore T100 SPR, mAb (supernatant) captured on anti-human IgG, IL13 analyte, 1:1 fit
// reported Kd per item
ENDPOINT: Kd (nM)

• A1H100A ValL1 (antibody, human IgG1, kappa, V domains shown, CDRH3 variant of A1L1) VH: QVQLVQSGAEVKKPGSSVKVSCKASGFYIKDTYMHWVRQAPGQGLEWMGTIDPANGNTKYVPKFQGRVTITADESTSTAYMELSSLRSEDTAVYYCARSIYDDYVYDDYYAMDYWGQGTLVTVSS VL: DIVMTQSPLSLPVTPGEPASISCRSSQNIVHINGNTYLEWYLQKPGQSPRLLIYKISDRFSGVPDRFSGSGSGTDFTLKISRVEADDVGIYYCFQGSHVPWTFGQGTKLEIKR = 0.152
• A1H100A SerL1 (antibody, human IgG1, kappa, V domains shown, CDRH3 variant of A1L1) VH: QVQLVQSGAEVKKPGSSVKVSCKASGFYIKDTYMHWVRQAPGQGLEWMGTIDPANGNTKYVPKFQGRVTITADESTSTAYMELSSLRSEDTAVYYCARSIYDDYSYDDYYAMDYWGQGTLVTVSS VL: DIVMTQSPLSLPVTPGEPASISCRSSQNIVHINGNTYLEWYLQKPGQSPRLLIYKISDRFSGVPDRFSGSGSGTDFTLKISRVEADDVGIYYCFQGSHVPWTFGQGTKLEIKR = 0.174
